Test system: OVCAR-3 ovarian
Experiment: NCI tumour cell line growth inhibition, 48 h
RECORDED_METRIC: TGI

COMPOUND	TESTED_ON	RECORDED_METRIC	MEASURED
CSCCC(NC(=O)CNC(=O)C(CC(=O)O)NC(=O)C(NC(=O)C(NC(=O)C(NC(=O)CNC(=O)C(CCC(N)=O)NC(=O)C(CCSC)NC(=O)C(CC(=O)O)NC(=O)C(C)NC(=O)C(C)NC(=O)C(NC(=O)C(CO)NC(=O)C(N)CC(C)C)C(C)O)C(C)C)C(C)C)C(C)O)C(=O)NC(C)C(=O)NC(CO)C(=O)NCC(=O)NC(CC(C)C)C(=O)NC(CC(=O)O)C(=O)NC(CCCCN)C(=O)NC(CC(=O)O)C(=O)NC(Cc1ccc(O)cc1)C(=O)NC(CC(C)C)C(=O)NC(CCCCN)C(=O)N1CCCC1C(=O)NC(CC(=O)O)C(=O)NC(CC(=O)O)C(=O)O (stereo not drawn)	OVCAR-3 ovarian	TGI	> 82.5 µM
C/C=C(\C)C(=O)O[C@H]1C=CC(=O)O[C@H]1CC[C@H](O)[C@H](C)O	OVCAR-3 ovarian	TGI	8.79 µM
CC1(C)COC2(OC1)C1=NS(=O)(=O)CC13CCC2C3(C)C (stereo not drawn)	OVCAR-3 ovarian	TGI	> 100 µM

----------
Quick reference: TGI of the listed items.
Tested on: NCI/ADR-RES ovarian
Experiment: NCI tumour cell line growth inhibition, 48 h
Where a SMILES comes first, the peptide text is derived from it. The star is where a group is joined. Boc = CC(C)(C)OC(=O)*
RECORDED_METRIC: TGI (µM)

COMPOUND	RECORDED_METRIC	OP	MEASURED
Cc1cc(C)c(C#N)c(SCC(=O)c2sc3c(C#N)c(C)cc(C)[n+]3c2[O-])n1	TGI	=	17.8
CC(NC(=O)OC(C)(C)C)C(=O)NC(Cc1ccccc1)C(=O)NCC(=O)O (stereo not drawn) (Boc-Ala-Phe-Gly-OH; configuration not given here)	TGI	>	100
CCC1=C(C)c2cc3[n-]c(cc4nc(c(C=O)c5[n-]c(cc1n2)c(C)c5CC)C(C)=C4CC)c(C)c3CC.[Ni+2]	TGI	>	100
COc1cc(C2c3cc4c(cc3CC3COC(=O)N32)OCO4)cc(OC)c1OC (centres undefined)	TGI	=	4.26
COc1cc(-c2cc(/C=C/C(=O)c3ccc(N)cc3)[nH]n2)cc(OC)c1OC	TGI	=	65.8
CCCCCCCCCCCC1=NCCN1	TGI	>	100
CN1CCN(c2ccc(N3Cc4ccccc4OC4=C3C(=O)c3c(O)ccc(O)c3C4=O)cn2)CC1	TGI	>	100
CCCCCCCCCCCC(=O)c1c(O)cc(C)oc1=O	TGI	>	100
COc1ccc2c(c1)CN1C(=N2)CSC1c1c(Cl)cccc1[N+](=O)[O-] (centres undefined)	TGI	=	46.4

----------
System: ACHN renal
Test: NCI tumour cell line growth inhibition, 48 h
RECORDED_METRIC: TGI

COMPOUND	MEASURED
O=c1n(N=S(=O)(c2ccccc2)c2ccccc2)c(=O)n2n1C1C=CC2CC1	> 100 µM
CSCCC(NC(=O)CNC(=O)C(CC(=O)O)NC(=O)C(NC(=O)C(NC(=O)C(NC(=O)CNC(=O)C(CCC(N)=O)NC(=O)C(CCSC)NC(=O)C(CC(=O)O)NC(=O)C(C)NC(=O)C(C)NC(=O)C(NC(=O)C(CO)NC(=O)C(N)CC(C)C)C(C)O)C(C)C)C(C)C)C(C)O)C(=O)NC(C)C(=O)NC(CO)C(=O)NCC(=O)NC(CC(C)C)C(=O)NC(CC(=O)O)C(=O)NC(CCCCN)C(=O)NC(CC(=O)O)C(=O)NC(Cc1ccc(O)cc1)C(=O)NC(CC(C)C)C(=O)NC(CCCCN)C(=O)N1CCCC1C(=O)NC(CC(=O)O)C(=O)NC(CC(=O)O)C(=O)O (stereo unspecified)	> 82.5 µM
CCCCCCCCCCCC(=O)c1c(O)cc(C)oc1=O	> 100 µM
O=C(Nc1ccccc1)c1cc(S(=O)(=O)Nc2nc3ncccc3[nH]2)c(SSc2cc(Cl)c(C(=O)Nc3ccccc3)cc2S(=O)(=O)Nc2nc3ncccc3[nH]2)cc1Cl	> 100 µM
CC(C)OC(=O)c1ccc(CCc2cc(O)c(Br)cc2O)cc1	31.9 µM
CC1=C(C)C(=O)C2=C(OCCO2)C1=O	55.1 µM
O=C(/C=C/c1c(O)ccc2ccccc12)c1ccccc1Cl	> 100 µM
N#CC(/C(=N/N=C(N)N)C(=O)Nc1ccccc1[N+](=O)[O-])c1nc(-c2ccc([N+](=O)[O-])cc2)cs1 (stereo unspecified)	> 100 µM
Cc1ccc2nc(-n3c(/C=C/c4ccccc4O)nc4ccccc4c3=O)sc2c1	> 100 µM
COc1cc(/C=C/c2ccc(/C=C/c3cc(OC)c(OC)c(OC)c3)cc2)cc(OC)c1OC	44.5 µM
O=C(O[C@H]1CN[C@H](C#Cc2cc3ncnc(Nc4ccc5c(cnn5Cc5ccccc5)c4)c3s2)C1)N1CCOCC1	> 25 µM
Cc1ccc(S(=O)(=O)NC2C(=O)c3ccccc3C(=O)C2n2ccnc2)cc1 (stereo unspecified)	> 100 µM
Cc1coc2c1[C@@H](O)[C@@]1(C)[C@H](CCC[C@@H]1C)C2	> 100 µM
CC1CCN(CCC(=O)CC(c2ccccc2)c2c(O)c3ccccc3oc2=O)CC1 (stereo unspecified)	> 100 µM
COC(=O)c1nn(-c2ccccc2)c(=O)cc1N=[N+]=[N-]	> 100 µM
Cc1cc(C(=O)NC(C)(C)C)cc(C#Cc2ccc3c4c(oc3c2)C(C)(C)c2cc(NS(C)(=O)=O)ccc2C4=O)n1	> 100 µM
Cc1occc(=O)c1O	> 100 µM
CCCCCCCCCCCCCCCCCCNc1ccn(C2OC(CO)C(OP(=O)(O)OCC(COP(=O)(O)OCC3OC(n4cc(F)c(NCCCCCCCCCCCCCCCCCC)nc4=O)CC3O)OC(=O)CCCCCCCCCCCCCCC)C2O)c(=O)n1 (stereo unspecified)	> 100 µM
CC(C)c1cccc(C(C)C)c1NC(=S)N=Nc1cc(C(C)(C)C)c(O)c(C(C)(C)C)c1	> 100 µM
COc1ccc2c(-c3ccc(OCCN(C)C)cc3)c(Oc3ccccc3)c(=O)oc2c1	22 µM
CC(NNC(=S)N1CCCCCC1)c1cccnn1 (stereo unspecified)	3.09 µM
Cc1ccc(S(=O)(=O)NC2=NCCN2C(=S)SN2CCn3c2nsc3=S)cc1	19.6 µM
Brc1ccc2[nH]cc([C@H]3CN[C@@H](c4c[nH]c5ccc(Br)cc45)CN3)c2c1	5.01 µM
COc1ccc2nccc(NCCCN3CCN(CCCNc4ccnc5ccc(OC)cc45)CC3)c2c1	11.4 µM
CCCCCCCCCCCc1noc2c1C(=O)C(O)CC2 (stereo unspecified)	> 100 µM
CCN(CC)CCOc1nc2c3ccc(Cl)cc3nn2c2ccccc12	3.36 µM
CCOC(=O)C1=C(N)CCC1C (stereo unspecified)	> 100 µM
CC(C)(C)c1cc(Cc2ccc([N+](C)(C)C)cc2)c(O)c(C(C)(C)C)c1	> 100 µM
O=S(=O)(O)c1cc(N=Nc2c(O)ccc3ccccc23)c2c(S(=O)(=O)O)cccc2c1	> 100 µM
N#Cc1c(N)nc(NCc2ccccc2)c(C#N)c1-c1ccc(Cl)cc1	32.8 µM
CC(=O)NC(Cc1cnc[nH]1)C(=O)N1CCCC1C(N)=O (stereo unspecified)	> 100 µM
Cc1cc2c(c(C)c1O)C(C)(C)CN2C(=O)C(C)(C)C	> 100 µM
CC1CN=C(N(C(=O)Nc2ccccc2)c2ccccc2)S1 (stereo unspecified)	> 100 µM
CC(=O)N(C)c1ccc2ncccc2c1[N+](=O)[O-]	> 100 µM
COc1ccc(C(=O)n2nc(/C=C/c3ccc(O)c(OC)c3)cc2/C=C/c2ccc(O)c(OC)c2)cc1	17.2 µM
CCCCCCCc1c(Cl)nc(Cl)nc1Cl	20.8 µM

----------
Tested on: U251 CNS
Assay: NCI tumour cell line growth inhibition, 48 h
RECORDED_METRIC: TGI (µM)

COMPOUND	RECORDED_METRIC	OP	MEASURED
Cc1cn(C2CC(n3cncn3)C(C(C)O)O2)c(=O)[nH]c1=O (centres undefined)	TGI	>	100
N#Cc1c(N)nc(NCc2ccccc2)c(C#N)c1-c1ccc(Cl)cc1	TGI	=	26.9
O=C(Nc1ccccc1)c1cc(S(=O)(=O)Nc2nc3ncccc3[nH]2)c(SSc2cc(Cl)c(C(=O)Nc3ccccc3)cc2S(=O)(=O)Nc2nc3ncccc3[nH]2)cc1Cl	TGI	>	100
CCOC(=O)C1N(S(=O)(=O)c2ccc(C)cc2)CCC12c1ccccc1NC2c1ccc(OC)c(OC)c1 (centres undefined)	TGI	>	100
Cc1cc(C)c(C#N)c(SCC(=O)c2sc3c(C#N)c(C)cc(C)[n+]3c2[O-])n1	TGI	=	98.8
CCCc1cc2c(cc1O)CC[C@@H]1[C@@H]2CC[C@]2(C)[C@@H](O)CC[C@@H]12	TGI	=	20.3
O=C(CCc1n[nH]c(=S)o1)Nc1cc(Cl)c(Cl)cc1Cl	TGI	>	100
CCOc1ccc(NC(=O)C(=O)C2C(=O)Nc3ccccc3S2=O)cc1 (centres undefined)	TGI	>	100
CCCN1C(=O)/C(=C/c2cccc(O)c2)SC1=Nc1ccc(OC)cc1	TGI	=	14.6

Entry source: PubChem BioAssay (NCI)
